The reported numbers originate from PubChem BioAssay AID248.

Tested on: L1210 leukemia ip in BDF1 mice, survival T/C
protocol-description: NCI In Vivo Anticancer Drug Screen. Data for tumor model L1210 Leukemia (intraperitoneal) in B6D2F1 (BDF1) mice
assay-setup: endpoint: mean survival time; dose: 100.0 mg/kg/injection; schedule: Q01DX001 (ip); vehicle: saline; higher = longer survival
Description: The antitumor activity of compounds was measured in mice bearing transplantable tumors. Survival or tumor size were measured and the results are expressed as the measurement made in the treated group (T) divided by the measurement made in the vehicle treated control group (C). The tumor model used in this assay is L1210 Leukemia (intraperitoneal) in B6D2F1 (BDF1) mice
Inconclusive results and toxic doses are left out.
measured-property: T/C

These solved cases illustrate the format of a correct answer.
CCOC(=O)NC(C)NC(=O)OCC; 107 % of control
NC(=O)c1[nH]cnc1N; 97 % of control
CCCN(CCC)S(=O)(=O)c1ccc(NC(=O)OC(c2ccccc2)(c2ccccc2)c2ccccc2)cc1; 100 % of control
C=CCc1ccc(OC(=O)Nc2ccc(S(=O)(=O)NC3CCCCC3)cc2)c(OC)c1; 91 % of control
NC(CC1C=CC=CC1)C(=O)O (stereo not drawn); 102 % of control
O=[N+]([O-])c1ccc(Cl)cc1/C=N/N1CCN(/N=C/c2cc(Cl)ccc2[N+](=O)[O-])CC1; 93 % of control
Cc1cn(C2OC(CO)C(O)C2O)c(=O)[nH]c1=O (stereo not drawn); 87 % of control
C=CC=O; 117 % of control
Nc1cc(S(=O)(=O)O)cc2ccccc12; 92 % of control
CC1(C)N=C(N)N=C(N)N1c1ccc(CC(=O)Nc2cccc(S(=O)(=O)F)c2)cc1; 100 % of control

Prompt: Any idea what T/C was measured for O=[N+]([O-])c1ccnc(NC2CCCCC2)c1 ?
Completion: 97 % of control

Prompt: Any idea what T/C was measured for C=CCSc1ccccc1Cl ?
Completion: 100 % of control

Prompt: Any idea what T/C was measured for CN(C)CCSS(=O)(=O)O ?
Completion: 93 % of control
